These measurements were taken from PubChem BioAssay.

Experiment: osmotic lysis modulators in infected erythrocytes, primary screen, PSAC antagonist project, cell-based, P. falciparum Indochina, OD700, 3 h (AID 1156)
Conditions: higher = more signal, called active from +8 up or from −8 down
Label true (1) when z-score >= 1; otherwise false (0).

z-score >= 1 for `COCCCNC(=O)[C@@]1(Cc2ccccc2N=[N+]=[N-])COC(c2ccc(OCCCO)cc2)=N1` ?
true (1)

###

Test: binders of probe aFSTL3 on microarray, primary screen, stem cell growth factor project, biochemical, small-molecule microarray, fluorescence 635/667 (AID 1064);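 also: measures binding of the biotinylated anti-FSTL3 antibody to printed compounds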
Conditions: higher = more signal
Each item that follows carries a reported composite z-score.

Example compounds with recorded composite z-score:
{"columns": ["COMPOUND", "composite z-score"],
 "data": [
  ["O=C1O[C@@H](c2ccccc2)[C@@H](c2ccccc2)N2[C@@H](c3ccc(O)cc3)[C@]3(C(=O)Nc4ccc(C#CC5(O)CCCCCC5)cc43)[C@@H](C(=O)NC[C@H](O)c3ccccc3)[C@H]12", 0.107],
  ["COCCCNC(=O)[C@@]1(Cc2ccccc2N=[N+]=[N-])COC(c2ccc(OCCCO)cc2)=N1", 0.846],
  ["O=C1OCCC/C=C\\[C@H]2OC34C=CCN(CCN5CCOCC5)C(=O)[C@H]3N(CCCCCCO)C(=O)[C@@H]4C12 (some centres not stated)", 0.0814],
  ["[N-]=[N+]=Nc1ccccc1C[C@]1(C(N)=O)N=C(c2ccc(OCCCO)cc2)O[C@H]1c1ccccc1N=[N+]=[N-]", 0.12]
]}

Please give the measured composite z-score for this compound: `COc1ccc([Si](C)(C)[C@@H]2[C@@H](CC(=O)N(CCO)Cc3ccccc3)O[C@]3(C(=O)N(Cc4cccc(N5C(=O)c6cccc7cccc5c67)c4)c4ccccc43)[C@H]2C)cc1`
-0.143

Which measured composite z-score value corresponds to `O=C1c2ccccc2[C@](Cc2ccccc2I)(C(=O)NCC(F)(F)F)[C@H](c2ccc(CO)cc2)N1C1CCCCC1` ?
-0.0894

Consider the compound shown here: `COC(=O)[C@@]1(Cc2ccccc2)[C@H]2c3cc(C(=O)N(C)C)n(CCc4ccc(O)c(OC)c4)c3C[C@H]2CN1C(=O)c1ccccc1` What is its recorded composite z-score?
0.514

###

Assay: basal MM1S mitochondrial membrane potential changes, profiling panel, cell-based, JC-1 fluorescence, 24 h, 100 nL compound (AID 1170); also: test concentration not given here
Conditions: higher = more signal
ATTRIBUTE MEASURED: z-score
Respond numerically, and do not add a unit to the figure.

{"columns": ["MOLECULE", "z-score"],
 "data": [
  ["Cc1cc(C)cc(N2C(=O)CSC2c2cccc([N+](=O)[O-])c2)c1 (configuration not stated)", -0.541]
]}

Name the reported z-score value associated with the molecule `COCCOC(=O)N1C(=O)[C@@]2(c3cc(C#CC4=CCCCC4)ccc31)[C@H](c1ccccc1OCCO)N1[C@H](c3ccccc3)[C@H](c3ccccc3)OC(=O)[C@H]1[C@@H]2C(=O)N1CCCCCCC1`
-1.31

Entry `COCCOC(=O)N1C(=O)[C@@]2(c3cc(C#Cc4ccc(OC)cc4)ccc31)[C@H](c1ccccc1OCCO)N1[C@H](c3ccccc3)[C@H](c3ccccc3)OC(=O)[C@H]1[C@@H]2C(=O)N1CCCCCCC1` : reported z-score = ?
-1.16

What measured z-score goes with `COc1ccc(CCNC(=O)[C@@H]2c3ccccc3C(=O)N(Cc3cc(C(F)(F)F)cc(C(F)(F)F)c3)[C@H]2c2ccc(CO)cc2)cc1` ?
0.29
